In this section, each of the compounds is paired with its reported IC50.
# Assay target: rat VAP-1 enzyme (SSAO) (Rattus norvegicus, UniProt O08590)
# Construct: made in house; cell extract used
# Sequence (O08590 whole entry): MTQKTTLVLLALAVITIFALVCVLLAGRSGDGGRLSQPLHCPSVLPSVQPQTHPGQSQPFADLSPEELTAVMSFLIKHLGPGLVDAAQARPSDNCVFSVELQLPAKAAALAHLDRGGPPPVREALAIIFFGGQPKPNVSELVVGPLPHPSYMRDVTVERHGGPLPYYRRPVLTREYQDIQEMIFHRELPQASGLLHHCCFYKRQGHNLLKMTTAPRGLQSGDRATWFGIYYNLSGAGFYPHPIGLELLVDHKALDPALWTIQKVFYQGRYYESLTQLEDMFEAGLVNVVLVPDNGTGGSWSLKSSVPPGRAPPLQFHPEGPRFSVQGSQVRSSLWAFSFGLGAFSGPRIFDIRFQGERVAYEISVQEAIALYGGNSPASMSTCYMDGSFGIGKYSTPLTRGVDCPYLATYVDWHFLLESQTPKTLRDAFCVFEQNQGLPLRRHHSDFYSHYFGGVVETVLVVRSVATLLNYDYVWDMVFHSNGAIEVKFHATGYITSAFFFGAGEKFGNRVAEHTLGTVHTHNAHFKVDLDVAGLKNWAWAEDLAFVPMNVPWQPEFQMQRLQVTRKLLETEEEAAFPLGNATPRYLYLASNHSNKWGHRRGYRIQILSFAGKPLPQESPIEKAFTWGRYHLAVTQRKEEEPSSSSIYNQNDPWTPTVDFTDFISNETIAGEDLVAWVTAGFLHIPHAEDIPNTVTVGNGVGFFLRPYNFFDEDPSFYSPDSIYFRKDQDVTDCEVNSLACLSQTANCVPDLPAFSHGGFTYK
# Procedure text: Enzyme activity inhibitory effect on rat VAP-1 enzyme (SSAO), radiochemical-enzyme assay with 14C-benzylamine
# Type: biochemical
# Measurement context: rat VAP-1 (SSAO) cell extract, 14C-benzylamine 1×10^−5 mol/l, 37° C. 2 hours
Where a name gives a salt, the structure may show the parent alone.
Numbers only here, please. The scale is nM.

CC(=O)Nc1nc(CCc2csc(CCCOC(=O)NN)c2)cs1.Cl [Production Example 15, hydrochloride] | 0.6
CC(=O)Nc1nc(CCc2ccc(OC(=O)NN)cc2)cs1.Cl [Production Example 1, hydrochloride] | 0.2

Request the reported IC50 associated with CC(=O)Nc1nc(CCc2ccc(CSC(=O)NN)s2)cs1 [Production Example 36, hydrochloride]
0.6

Please answer likewise for CC(=O)Nc1nc(C(=O)Nc2ccc(CNC(=O)NN)cc2)cs1.Cl [Production Example 24, hydrochloride]
1

// same read-out, input: CC(=O)Nc1nc(CCc2cccc(CCNC(=O)NN)c2)cs1.Cl [Production Example 28, hydrochloride]
5.6

What about CC(=O)Nc1nc(C(=O)Oc2ccc(CCOC(=O)NN)cc2)cs1.Cl [Production Example 8, hydrochloride] ?
1.7

Do the same for CC(=O)Nc1nc(CCc2ccc(CSC(=O)NN)cc2)cs1.Cl [Production Example 34, hydrochloride] please
4.6

What do you have for CC(=O)Nc1nc(CCc2ccc(CNC(=O)NN)cc2)cs1.Cl [Production Example 18, hydrochloride] ?
1.3

Now this one: CC(=O)Nc1nc(COc2ccc(CCNC(=O)NN)cc2)cs1 [Production Example 25, trifluoroacetate]
1.5
